Target: T1, human GRF receptor (human, UniProt Q02643 23-423)
T1 sequence (looked up): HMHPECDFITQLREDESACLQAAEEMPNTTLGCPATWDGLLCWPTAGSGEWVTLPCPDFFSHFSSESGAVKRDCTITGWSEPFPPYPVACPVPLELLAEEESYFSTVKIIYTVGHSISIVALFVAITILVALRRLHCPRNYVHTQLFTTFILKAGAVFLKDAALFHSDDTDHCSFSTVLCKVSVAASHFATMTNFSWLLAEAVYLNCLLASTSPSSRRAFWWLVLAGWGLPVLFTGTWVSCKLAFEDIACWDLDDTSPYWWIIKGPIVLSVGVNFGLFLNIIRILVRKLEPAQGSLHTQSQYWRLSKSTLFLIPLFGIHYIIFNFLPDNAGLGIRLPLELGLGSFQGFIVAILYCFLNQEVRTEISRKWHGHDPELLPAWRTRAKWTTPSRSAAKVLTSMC
Protocol Details: cell-based or functional assay
*1 amine or outer side, *2 acyl side, *3 side chain or, on linkers, in order; H or OH if unused. Primed or numbered codes have the meaning given here. [ ]: non-standard residue; d: D form. The star is where a group is joined. βAsp = O=C(O)[C@H](CC(=O)[*:2])N[*:1]; Hexenoyl(3E) = CC/C=C/CC(=O)*; Asu′ = not defined here
Result Type: EMAX (%), alkaline phosphatase reporter gene assay
Give bare numbers, in %.

>>> assay_result("{Hexenoyl(3E)}-YA[βAsp]AIFTNSYRKVLGQLSARKLLQDIMSRQQGESNQERGARARL-NH2 [TH9507 beta-Asp3]")
116
>>> assay_result("{Hexenoyl(3E)}-YADAIFT[βAsp]SYRKVLGQLSARKLLQDIMSRQQGESNQERGARARL-NH2 [TH9507 beta-Asp8]")
120
>>> assay_result("{Hexenoyl(3E)}-YADAIFTDSYRKVLGQLSARKLLQDIMSRQQGESNQERGARARL-NH2 [TH9507 Asp8]")
114

Value lookup for EMAX (%), alkaline phosphatase reporter gene assay; key = {Hexenoyl(3E)}-YA[Asu′]AIFTNSYRKVLGQLSARKLLQDIMSRQQGESNQERGARARL-NH2 (reading uncertain) [TH9507 cyclic form at Asp^3]
95.7
